# Measured Target: human insulin receptor (HIR) (human, UniProt P06213)
# Assay Info: competition
pKd: −log10 of the molar value.
Readout Name: pKd

> print(dat)
                                     binder  measured.value
1  S415 (listing feature) chain 1: ESFYDWFERQLGKX chain 2: ESFYDWFERQLGKX            7.00
